Data origin, for the record: patent US9907757B2

Listing: Increase of degradation products % of selected compounds
- EXPERIMENTAL_PROTOCOL: Oxidative degradation of amorphous and polymorphic forms of atorvastatin at 80° C. in air and oxygen (liquid chromatography)
- Assay type: physicochemical
- COND: stored at 80° C. 3 days in normal (air) atmosphere, in respect to reference samples stored at 4° C.; hemicalcium salt
// note: answer is a bare numeric in %

COMPOUND	Increase of degradation products %, %
CC(C)c1c(C(=O)Nc2ccccc2)c(-c2ccccc2)c(-c2ccc(F)cc2)n1CC[C@@H](O)C[C@@H](O)CC(=O)O.CC(C)c1c(C(=O)Nc2ccccc2)c(-c2ccccc2)c(-c2ccc(F)cc2)n1CC[C@@H](O)C[C@@H](O)CC(=O)O.CC(C)c1c(C(=O)Nc2ccccc2)c(-c2ccccc2)c(-c2ccc(F)cc2)n1CC[C@@H](O)C[C@@H](O)CC(=O)[O-].CC(C)c1c(C(=O)Nc2ccccc2)c(-c2ccccc2)c(-c2ccc(F)cc2)n1CC[C@@H](O)C[C@@H](O)CC(=O)[O-].[Ca+2] (relative stereo) [Crystalline form IV]	1.14
CC(C)c1c(C(=O)Nc2ccccc2)c(-c2ccccc2)c(-c2ccc(F)cc2)n1CC[C@@H](O)C[C@@H](O)CC(=O)O.CC(C)c1c(C(=O)Nc2ccccc2)c(-c2ccccc2)c(-c2ccc(F)cc2)n1CC[C@@H](O)C[C@@H](O)CC(=O)O.CC(C)c1c(C(=O)Nc2ccccc2)c(-c2ccccc2)c(-c2ccc(F)cc2)n1CC[C@@H](O)C[C@@H](O)CC(=O)[O-].CC(C)c1c(C(=O)Nc2ccccc2)c(-c2ccccc2)c(-c2ccc(F)cc2)n1CC[C@@H](O)C[C@@H](O)CC(=O)[O-].[Ca+2] (relative stereo) [Crystalline form II]	0.25
CC(C)c1c(C(=O)Nc2ccccc2)c(-c2ccccc2)c(-c2ccc(F)cc2)n1CC[C@@H](O)C[C@@H](O)CC(=O)O.CC(C)c1c(C(=O)Nc2ccccc2)c(-c2ccccc2)c(-c2ccc(F)cc2)n1CC[C@@H](O)C[C@@H](O)CC(=O)O.CC(C)c1c(C(=O)Nc2ccccc2)c(-c2ccccc2)c(-c2ccc(F)cc2)n1CC[C@@H](O)C[C@@H](O)CC(=O)[O-].CC(C)c1c(C(=O)Nc2ccccc2)c(-c2ccccc2)c(-c2ccc(F)cc2)n1CC[C@@H](O)C[C@@H](O)CC(=O)[O-].[Ca+2] (relative stereo) [Amorphous ATV]	1.04

input: What does the data say about its Increase of degradation products %? Entry: CC(C)c1c(C(=O)Nc2ccccc2)c(-c2ccccc2)c(-c2ccc(F)cc2)n1CC[C@@H](O)C[C@@H](O)CC(=O)O.CC(C)c1c(C(=O)Nc2ccccc2)c(-c2ccccc2)c(-c2ccc(F)cc2)n1CC[C@@H](O)C[C@@H](O)CC(=O)O.CC(C)c1c(C(=O)Nc2ccccc2)c(-c2ccccc2)c(-c2ccc(F)cc2)n1CC[C@@H](O)C[C@@H](O)CC(=O)[O-].CC(C)c1c(C(=O)Nc2ccccc2)c(-c2ccccc2)c(-c2ccc(F)cc2)n1CC[C@@H](O)C[C@@H](O)CC(=O)[O-].[Ca+2] (relative stereo) [Crystalline form I]
output: 0.04

input: What does the data say about its Increase of degradation products %? Entry: CC(C)c1c(C(=O)Nc2ccccc2)c(-c2ccccc2)c(-c2ccc(F)cc2)n1CC[C@@H](O)C[C@@H](O)CC(=O)O.CC(C)c1c(C(=O)Nc2ccccc2)c(-c2ccccc2)c(-c2ccc(F)cc2)n1CC[C@@H](O)C[C@@H](O)CC(=O)O.CC(C)c1c(C(=O)Nc2ccccc2)c(-c2ccccc2)c(-c2ccc(F)cc2)n1CC[C@@H](O)C[C@@H](O)CC(=O)[O-].CC(C)c1c(C(=O)Nc2ccccc2)c(-c2ccccc2)c(-c2ccc(F)cc2)n1CC[C@@H](O)C[C@@H](O)CC(=O)[O-].[Ca+2] (relative stereo) [Crystalline form III]
output: 0.11

====

- EXPERIMENTAL_PROTOCOL: Oxidative degradation of amorphous and polymorphic forms of atorvastatin at 80° C. in air and oxygen (liquid chromatography)
- Type: physicochemical
- COND: stored at 80° C. 3 days in oxygen atmosphere, in respect to reference samples stored at 4° C.; hemicalcium salt
Label t for high-side Increase of degradation products % (at or above 0.7%) and f for low-side Increase of degradation products % (below it).

A selection of reference data follows.
MOLECULE	CLASS_LABEL
CC(C)c1c(C(=O)Nc2ccccc2)c(-c2ccccc2)c(-c2ccc(F)cc2)n1CC[C@@H](O)C[C@@H](O)CC(=O)O.CC(C)c1c(C(=O)Nc2ccccc2)c(-c2ccccc2)c(-c2ccc(F)cc2)n1CC[C@@H](O)C[C@@H](O)CC(=O)O.CC(C)c1c(C(=O)Nc2ccccc2)c(-c2ccccc2)c(-c2ccc(F)cc2)n1CC[C@@H](O)C[C@@H](O)CC(=O)[O-].CC(C)c1c(C(=O)Nc2ccccc2)c(-c2ccccc2)c(-c2ccc(F)cc2)n1CC[C@@H](O)C[C@@H](O)CC(=O)[O-].[Ca+2] (relative stereo) [Crystalline form I]	f
CC(C)c1c(C(=O)Nc2ccccc2)c(-c2ccccc2)c(-c2ccc(F)cc2)n1CC[C@@H](O)C[C@@H](O)CC(=O)O.CC(C)c1c(C(=O)Nc2ccccc2)c(-c2ccccc2)c(-c2ccc(F)cc2)n1CC[C@@H](O)C[C@@H](O)CC(=O)O.CC(C)c1c(C(=O)Nc2ccccc2)c(-c2ccccc2)c(-c2ccc(F)cc2)n1CC[C@@H](O)C[C@@H](O)CC(=O)[O-].CC(C)c1c(C(=O)Nc2ccccc2)c(-c2ccccc2)c(-c2ccc(F)cc2)n1CC[C@@H](O)C[C@@H](O)CC(=O)[O-].[Ca+2] (relative stereo) [Amorphous ATV]	t
CC(C)c1c(C(=O)Nc2ccccc2)c(-c2ccccc2)c(-c2ccc(F)cc2)n1CC[C@@H](O)C[C@@H](O)CC(=O)O.CC(C)c1c(C(=O)Nc2ccccc2)c(-c2ccccc2)c(-c2ccc(F)cc2)n1CC[C@@H](O)C[C@@H](O)CC(=O)O.CC(C)c1c(C(=O)Nc2ccccc2)c(-c2ccccc2)c(-c2ccc(F)cc2)n1CC[C@@H](O)C[C@@H](O)CC(=O)[O-].CC(C)c1c(C(=O)Nc2ccccc2)c(-c2ccccc2)c(-c2ccc(F)cc2)n1CC[C@@H](O)C[C@@H](O)CC(=O)[O-].[Ca+2] (relative stereo) [Crystalline form IV]	t

Switching to the query record.
input: State whether the measured Increase of degradation products % reaches 0.7%, counting equality as reaching it, for CC(C)c1c(C(=O)Nc2ccccc2)c(-c2ccccc2)c(-c2ccc(F)cc2)n1CC[C@@H](O)C[C@@H](O)CC(=O)O.CC(C)c1c(C(=O)Nc2ccccc2)c(-c2ccccc2)c(-c2ccc(F)cc2)n1CC[C@@H](O)C[C@@H](O)CC(=O)O.CC(C)c1c(C(=O)Nc2ccccc2)c(-c2ccccc2)c(-c2ccc(F)cc2)n1CC[C@@H](O)C[C@@H](O)CC(=O)[O-].CC(C)c1c(C(=O)Nc2ccccc2)c(-c2ccccc2)c(-c2ccc(F)cc2)n1CC[C@@H](O)C[C@@H](O)CC(=O)[O-].[Ca+2] (relative stereo) [Crystalline form III]
output: f
